As shown below, each of these compounds has a reported inhibition at 15 µM value.
# TARGET SYSTEM: recombinant NMDA receptors NR1/NR2A (HEK293 cells) (Homo sapiens, UniProt Q12879)
# Construct: expressed in transfected cells
# Sequence (Q12879 23-1464, other chains not shown): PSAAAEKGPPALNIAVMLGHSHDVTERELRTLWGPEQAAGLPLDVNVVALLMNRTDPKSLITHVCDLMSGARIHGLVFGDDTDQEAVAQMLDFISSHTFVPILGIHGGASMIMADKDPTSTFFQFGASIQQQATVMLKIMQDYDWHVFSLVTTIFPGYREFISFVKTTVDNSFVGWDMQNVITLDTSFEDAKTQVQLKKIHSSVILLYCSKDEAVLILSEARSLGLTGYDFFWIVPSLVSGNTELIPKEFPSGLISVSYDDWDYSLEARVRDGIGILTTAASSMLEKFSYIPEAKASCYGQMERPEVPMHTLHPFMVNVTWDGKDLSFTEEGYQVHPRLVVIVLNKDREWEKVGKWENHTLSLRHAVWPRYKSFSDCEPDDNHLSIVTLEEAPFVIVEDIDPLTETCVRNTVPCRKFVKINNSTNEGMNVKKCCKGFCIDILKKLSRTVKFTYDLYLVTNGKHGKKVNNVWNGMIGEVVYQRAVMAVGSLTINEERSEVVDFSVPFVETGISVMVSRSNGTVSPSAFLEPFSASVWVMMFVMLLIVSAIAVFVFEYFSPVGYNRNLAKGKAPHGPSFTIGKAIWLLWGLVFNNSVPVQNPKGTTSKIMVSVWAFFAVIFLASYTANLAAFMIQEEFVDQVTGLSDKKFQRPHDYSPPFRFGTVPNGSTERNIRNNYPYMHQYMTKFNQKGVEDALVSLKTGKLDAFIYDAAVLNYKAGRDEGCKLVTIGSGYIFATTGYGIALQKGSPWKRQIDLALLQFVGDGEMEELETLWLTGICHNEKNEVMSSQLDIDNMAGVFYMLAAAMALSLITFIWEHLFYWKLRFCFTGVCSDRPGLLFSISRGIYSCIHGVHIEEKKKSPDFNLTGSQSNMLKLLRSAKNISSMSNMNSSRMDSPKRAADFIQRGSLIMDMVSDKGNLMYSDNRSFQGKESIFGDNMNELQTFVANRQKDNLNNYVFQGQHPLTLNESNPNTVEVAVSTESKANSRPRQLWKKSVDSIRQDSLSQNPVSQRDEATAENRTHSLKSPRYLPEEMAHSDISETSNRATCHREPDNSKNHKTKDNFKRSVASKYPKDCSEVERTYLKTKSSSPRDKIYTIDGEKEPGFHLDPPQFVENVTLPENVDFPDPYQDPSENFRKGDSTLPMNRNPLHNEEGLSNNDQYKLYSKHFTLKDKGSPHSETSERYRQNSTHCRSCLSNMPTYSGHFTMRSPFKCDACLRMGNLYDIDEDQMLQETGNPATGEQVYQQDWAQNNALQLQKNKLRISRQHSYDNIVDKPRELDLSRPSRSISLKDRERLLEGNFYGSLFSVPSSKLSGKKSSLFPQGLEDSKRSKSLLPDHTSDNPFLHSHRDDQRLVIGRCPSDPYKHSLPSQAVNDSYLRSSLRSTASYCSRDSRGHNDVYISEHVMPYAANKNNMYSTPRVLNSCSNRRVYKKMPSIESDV
# PROTOCOL SUMMARY: Inhibition of NMDA evoked cytosolic calcium elevation in HEK293 cells transfected with NR1/NR2A
# Assay type: cell-based
# SETUP CONDITIONS: HEK293
# Experimental: Expression of Recombinant NMDA Receptors (1997); Neurochemistry International, 43, 19-29. (2003)]. […] Compounds were tested for their inhibitory action on NMDA evoked cytosolic calcium elevations in fluorescent calcium measurements. […] Dose-response curves and IC50-values were calculated using data derived from at least three independent experiments. Inhibitory potency of a compound at a single concentration point was expressed as percent inhibition of the NMDA response. […]

Study these solved cases before continuing.
>>> endpoint_value("O=C(Nc1ccc2[nH]c(=O)oc2c1)C(=O)N1CCC(=Cc2ccccc2)CC1")
"< 30%"
>>> endpoint_value("Cc1ccc(C=C2CCN(C(=O)C(=O)Nc3ccc4[nH]c(=O)[nH]c4c3)CC2)cc1")
"< 30%"
>>> endpoint_value("O=C(Nc1ccc2[nH]c(=O)sc2c1)C(=O)N1CCC(=Cc2ccccc2)CC1")
"< 30%"
>>> endpoint_value("COc1ccc(C=C2CCN(C(=O)C(=O)Nc3ccc4[nH]c(=O)[nH]c4c3)CC2)cc1")
"< 30%"
>>> endpoint_value("O=C(Nc1ccc2[nH]c(=O)oc2c1)C(=O)N1CCC(=Cc2ccc(F)cc2)CC1")
"< 30%"

We now examine a further compound.
Asked: Reported inhibition at 15 µM for recombinant NMDA receptors NR1/NR2A (HEK293 cells) (Homo sapiens, UniProt Q12879), given COc1ccc(C=C2CCN(C(=O)C(=O)Nc3ccc(NS(C)(=O)=O)cc3)CC2)cc1 ?
Given back: < 30%

---

# TARGET SYSTEM: NR2B containing NMDA receptors (rat cortical cells) (Rattus norvegicus, UniProt P35439+Q00960)
# Construct: The cells at this in vitro age are believed to express predominantly NR2B containing NMDA receptors; endogenous in cells; host or cells: primary neocortical cell culture from 17 day old rat embryos, 3-7 days in vitro
# Sequence (Q00960 27-1482, other chains not shown): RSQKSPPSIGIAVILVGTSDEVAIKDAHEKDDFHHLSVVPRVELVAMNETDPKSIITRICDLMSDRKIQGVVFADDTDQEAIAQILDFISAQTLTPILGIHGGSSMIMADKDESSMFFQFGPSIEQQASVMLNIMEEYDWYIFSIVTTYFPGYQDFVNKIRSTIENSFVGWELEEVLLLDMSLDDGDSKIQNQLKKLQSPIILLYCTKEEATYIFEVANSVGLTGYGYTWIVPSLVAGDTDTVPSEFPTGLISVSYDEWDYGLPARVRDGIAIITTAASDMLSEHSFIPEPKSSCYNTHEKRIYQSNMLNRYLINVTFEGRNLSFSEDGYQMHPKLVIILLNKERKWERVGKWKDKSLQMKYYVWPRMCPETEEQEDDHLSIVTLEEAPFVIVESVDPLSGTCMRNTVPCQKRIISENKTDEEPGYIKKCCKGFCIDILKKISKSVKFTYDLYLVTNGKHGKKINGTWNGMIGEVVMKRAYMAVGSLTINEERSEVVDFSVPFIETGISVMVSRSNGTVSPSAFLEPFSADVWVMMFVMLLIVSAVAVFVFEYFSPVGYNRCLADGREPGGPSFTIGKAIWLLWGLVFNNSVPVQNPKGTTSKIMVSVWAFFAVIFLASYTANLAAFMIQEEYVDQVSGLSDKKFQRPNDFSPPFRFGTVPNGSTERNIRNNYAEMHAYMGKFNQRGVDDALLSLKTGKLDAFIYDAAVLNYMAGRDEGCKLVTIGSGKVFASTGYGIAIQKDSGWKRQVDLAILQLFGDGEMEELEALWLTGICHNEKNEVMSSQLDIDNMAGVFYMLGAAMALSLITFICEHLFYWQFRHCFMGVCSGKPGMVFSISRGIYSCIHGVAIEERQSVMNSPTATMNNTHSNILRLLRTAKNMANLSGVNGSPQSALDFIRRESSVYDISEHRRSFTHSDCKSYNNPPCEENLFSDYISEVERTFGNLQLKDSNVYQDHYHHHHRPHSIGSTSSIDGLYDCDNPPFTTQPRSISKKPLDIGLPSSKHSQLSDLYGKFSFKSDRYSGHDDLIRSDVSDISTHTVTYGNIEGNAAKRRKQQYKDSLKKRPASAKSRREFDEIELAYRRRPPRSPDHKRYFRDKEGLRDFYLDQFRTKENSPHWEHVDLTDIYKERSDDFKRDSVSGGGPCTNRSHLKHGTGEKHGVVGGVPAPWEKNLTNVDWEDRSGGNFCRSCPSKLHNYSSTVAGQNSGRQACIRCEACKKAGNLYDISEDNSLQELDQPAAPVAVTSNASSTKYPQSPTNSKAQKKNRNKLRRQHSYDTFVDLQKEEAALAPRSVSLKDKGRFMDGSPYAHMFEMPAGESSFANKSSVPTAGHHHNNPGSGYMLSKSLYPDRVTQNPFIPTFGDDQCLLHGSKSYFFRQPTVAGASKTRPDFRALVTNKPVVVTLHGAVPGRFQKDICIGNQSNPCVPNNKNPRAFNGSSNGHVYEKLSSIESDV
# PROTOCOL SUMMARY: NMDA antagonist potency by intracellular calcium measurement with plate reader fluorimeter in rat cortical cell culture
# Assay type: cell-based
# SETUP CONDITIONS: 40 μM NMDA, fluorimetric method; read-out: Rat cortical cells (NR2B) appr. IC50
pIC50: −log10 of the molar value.
As shown below, each of these molecules has a reported pIC50 value.

>>> endpoint_value("Cn1c(=O)[nH]c2ccc(NC(=O)C(=O)N3CCC(=Cc4ccccc4)CC3)cc21")
"6.30 to 7.30"
>>> endpoint_value("O=C(Nc1ccc2[nH]c(=O)sc2c1)C(=O)N1CCC(=Cc2ccccc2)CC1")
"> 7.30"
>>> endpoint_value("O=C1COc2cc(NC(=O)C(=O)N3CCC(=Cc4ccccc4)CC3)ccc2N1")
"6.00 to 6.30"
>>> endpoint_value("CS(=O)(=O)Nc1ccc(NC(=O)C(=O)N2CCC(=Cc3ccc(Cl)cc3)CC2)cc1")
"6.30 to 7.30"
>>> endpoint_value("O=C1Cc2cc(NC(=O)C(=O)N3CCC(=Cc4ccc(Cl)cc4)CC3)ccc2N1")
"6.30 to 7.30"
>>> endpoint_value("Cc1ccc(C=C2CCN(C(=O)C(=O)Nc3ccc4[nH]c(=S)oc4c3)CC2)cc1")
"6.30 to 7.30"

Asked: I'd like to know its pIC50. The molecule in question is O=C(Nc1ccc2[nH]c(=S)oc2c1)C(=O)N1CCC(=Cc2ccc(Cl)cc2)CC1
Given back: 6.30 to 7.30

Asked: I'd like to know its pIC50. The molecule in question is O=C1Cc2cc(NC(=O)C(=O)N3CCC(=Cc4ccc(F)cc4)CC3)ccc2N1
Given back: 6.00 to 6.30

---

# TARGET SYSTEM: NR2B containing NMDA receptors (rat cortical cells) (Rattus norvegicus, UniProt P35439+Q00960)
# Construct: The cells at this in vitro age are believed to express predominantly NR2B containing NMDA receptors; endogenous in cells; host or cells: primary neocortical cell culture from 17 day old rat embryos, 3-7 days in vitro
# PROTOCOL SUMMARY: NMDA antagonist potency by intracellular calcium measurement with plate reader fluorimeter in rat cortical cell culture
# Format: cell-based
# SETUP CONDITIONS: reference compounds, fluorimetric method; read-out: rat cortical cells IC50
# Procedure: Assessment of NMDA Antagonist Potency In Vitro by Measurement of Intracellular Calcium Concentration with a Plate Reader Fluorimeter in Rat Cortical Cell Culture The cultures were used for the intracellular calcium measurements after 3-7 days in vitro. […] Intracellular calcium measurements were carried out with a plate reader fluorimeter: elevation of Fluo-4-fluorescence and so, intracellular calcium concentration was induced by application of 40 μM NMDA. […]
QUANTITY KIND: IC50 (nM)
Write the answer as a number in nM, unit excluded.

Asked: I'd like to know its IC50. The molecule in question is O=C(CCN1CCC(Cc2ccc(F)cc2)CC1)c1ccc2[nH]c(=O)oc2c1 [EMD 95885, reference compound]
Given back: 35

---

# TARGET SYSTEM: NR2B containing NMDA receptors (rat cortical cells) (Rattus norvegicus, UniProt P35439+Q00960)
# Construct: The cells at this in vitro age are believed to express predominantly NR2B containing NMDA receptors; endogenous in cells; host or cells: primary neocortical cell culture from 17 day old rat embryos, 3-7 days in vitro
# PROTOCOL SUMMARY: NMDA antagonist potency by intracellular calcium measurement with plate reader fluorimeter in rat cortical cell culture
# Format: cell-based
# SETUP CONDITIONS: 40 μM NMDA, fluorimetric method; read-out: Rat cortical cells (NR2B) appr. IC50
QUANTITY KIND: IC50

Study these solved cases before continuing.
>>> endpoint_value("O=C(Nc1ccc2[nH]c(=O)oc2c1)C(=O)N1CCC(=Cc2ccc(Cl)cc2)CC1")
"< 50 nM"
>>> endpoint_value("O=C(Nc1ccc2[nH]c(=O)oc2c1)C(=O)N1CCC(=Cc2ccccc2)CC1")
"< 50 nM"
>>> endpoint_value("Cc1ccc(C=C2CCN(C(=O)C(=O)Nc3ccc4[nH]c(=O)sc4c3)CC2)cc1")
"< 50 nM"

Asked: I'd like to know its IC50. The molecule in question is Cc1ccc(C=C2CCN(C(=O)C(=O)Nc3ccc4[nH]c(=O)[nH]c4c3)CC2)cc1
Given back: < 50 nM

Asked: I'd like to know its IC50. The molecule in question is O=C(Nc1ccc2[nH]c(=O)sc2c1)C(=O)N1CCC(=Cc2ccc(Cl)cc2)CC1
Given back: < 50 nM

Asked: I'd like to know its IC50. The molecule in question is Cn1c(=O)[nH]c2ccc(NC(=O)C(=O)N3CCC(=Cc4ccc(Cl)cc4)CC3)cc21
Given back: 50 to 500 nM

Asked: I'd like to know its IC50. The molecule in question is O=C(Nc1ccc2[nH]c(=O)oc2c1)C(=O)N1CCC(=Cc2ccc(F)cc2)CC1
Given back: < 50 nM

Asked: I'd like to know its IC50. The molecule in question is COc1ccc(C=C2CCN(C(=O)C(=O)Nc3ccc4[nH]c(=O)n(C)c4c3)CC2)cc1
Given back: 50 to 500 nM

---

As shown below, each of these compounds has a reported IC50 value.
# TARGET SYSTEM: NR2B containing NMDA receptors (rat cortical cells) (Rattus norvegicus, UniProt P35439+Q00960)
# Construct: The cells at this in vitro age are believed to express predominantly NR2B containing NMDA receptors; endogenous in cells; host or cells: primary neocortical cell culture from 17 day old rat embryos, 3-7 days in vitro
# PROTOCOL SUMMARY: NMDA antagonist potency by intracellular calcium measurement with plate reader fluorimeter in rat cortical cell culture
# Format: cell-based
# SETUP CONDITIONS: 40 μM NMDA, fluorimetric method; read-out: Rat cortical cells (NR2B) appr. IC50

>>> endpoint_value("Cc1ccc(C=C2CCN(C(=O)C(=O)Nc3ccc4c(c3)OCC(=O)N4)CC2)cc1")
"50 to 500 nM"
>>> endpoint_value("COc1ccc(C=C2CCN(C(=O)C(=O)Nc3ccc4[nH]c(=O)[nH]c4c3)CC2)cc1")
"< 50 nM"
>>> endpoint_value("Cc1ccc(C=C2CCN(C(=O)C(=O)Nc3ccc4[nH]c(=O)n(C)c4c3)CC2)cc1")
"50 to 500 nM"
>>> endpoint_value("Cc1ccc(C=C2CCN(C(=O)C(=O)Nc3ccc(NS(C)(=O)=O)cc3)CC2)cc1")
"50 to 500 nM"
>>> endpoint_value("CS(=O)(=O)Nc1ccc(NC(=O)C(=O)N2CCC(=Cc3ccccc3)CC2)cc1")
"50 to 500 nM"

Asked: I'd like to know its IC50. The compound in question is O=C1COc2cc(NC(=O)C(=O)N3CCC(=Cc4ccc(Cl)cc4)CC3)ccc2N1
Given back: 500 to 1000 nM

Asked: I'd like to know its IC50. The compound in question is COc1ccc(C=C2CCN(C(=O)C(=O)Nc3ccc(NS(C)(=O)=O)cc3)CC2)cc1
Given back: < 50 nM

Asked: I'd like to know its IC50. The compound in question is O=C(Nc1ccc2[nH]c(=O)[nH]c2c1)C(=O)N1CCC(=Cc2ccc(Cl)cc2)CC1
Given back: < 50 nM

Asked: I'd like to know its IC50. The compound in question is O=C(Nc1ccc2[nH]c(=S)oc2c1)C(=O)N1CCC(=Cc2ccccc2)CC1
Given back: 50 to 500 nM
